Molecular target: T1, pKal (Homo sapiens, UniProt P03952)
T1 construct: two disulfide linked polypeptides; a heavy chain of approximately 52 kDa and a catalytic domain of approximately 34 kDa; host or cells: human plasma
T1 sequence (P03952 391-638 limits assumed): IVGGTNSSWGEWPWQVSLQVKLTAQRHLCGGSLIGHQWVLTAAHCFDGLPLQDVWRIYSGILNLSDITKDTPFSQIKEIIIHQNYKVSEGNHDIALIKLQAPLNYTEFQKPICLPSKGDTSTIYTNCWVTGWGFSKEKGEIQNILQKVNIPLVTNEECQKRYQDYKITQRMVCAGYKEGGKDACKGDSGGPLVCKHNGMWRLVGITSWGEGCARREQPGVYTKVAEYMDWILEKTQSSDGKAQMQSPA
T1 sequence (P03952 20-390 partner limits assumed): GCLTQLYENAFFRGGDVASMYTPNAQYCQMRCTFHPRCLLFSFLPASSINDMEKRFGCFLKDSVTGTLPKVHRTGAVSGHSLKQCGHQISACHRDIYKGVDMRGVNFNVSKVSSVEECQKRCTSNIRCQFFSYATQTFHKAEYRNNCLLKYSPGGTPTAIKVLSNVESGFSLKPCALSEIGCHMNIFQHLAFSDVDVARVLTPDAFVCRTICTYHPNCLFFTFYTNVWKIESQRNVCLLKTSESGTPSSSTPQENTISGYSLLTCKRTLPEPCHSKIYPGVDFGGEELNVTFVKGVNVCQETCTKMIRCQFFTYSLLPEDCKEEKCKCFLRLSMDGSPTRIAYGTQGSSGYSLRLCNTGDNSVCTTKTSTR
Experiment: Fab fragments (small scale) tested for inhibition against human pKal in an in vitro protease cleavage assay
Type: biochemical
Conditions: Table 9
OBSERVED PROPERTY: Inhibit as a Fab?

The cases that follow already have their Inhibit as a Fab? on record.
MOLECULE	Inhibit as a Fab?
X66-B05: single point mutation of M142-H08 (P1); HV-CDR3 GGLLLWFCELKSNYFDY (antibody, V domains shown) VL: QDIQMTQSPSSLSAFVGDRVTITCRASQPIDNYLNWYHQKPGKAPKLLIYAASRLQSGVPSRLSGSGFGTDFTLTISSLQPEDFGNYYCQQSYTVPYTFGGGTKVEIR VH: EVQLLESGGGLVQPGGSLRLSCAASGFTFSAYSMIWVRQAPGKGLEWVSYIRPSGGRTTYADSVKGRFTISRDNSKNTLYLQMNSLRAEDTAVYYCARGGLLLWFCELKSNYFDYWGQGTLVTVSSASTKGPSVFPLAPSSKS	No
X66-F10: single point mutation of M142-H08 (P1); HV-CDR3 GGLLLWFPELKSNYFDY (antibody, V domains shown) VL: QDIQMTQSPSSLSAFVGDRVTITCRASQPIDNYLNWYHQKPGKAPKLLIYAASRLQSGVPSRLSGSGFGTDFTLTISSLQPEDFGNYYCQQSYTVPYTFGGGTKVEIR VH: EVQLLESGGGLVQPGGSLRLSCAASGFTFSAYSMIWVRQAPGKGLEWVSYIRPSGGRTTYADSVKGRFTISRDNSKNTLYLQMNSLRAEDTAVYYCARGGLLLWFPELKSNYFDYWGQGTLVTVSSASTKGPSVFPLAPSSKS	No
X68-D11: single point mutation of M142-H08 (P3); HV-CDR3 GGLLLKFRELKSNYFDY (antibody, V domains shown) VL: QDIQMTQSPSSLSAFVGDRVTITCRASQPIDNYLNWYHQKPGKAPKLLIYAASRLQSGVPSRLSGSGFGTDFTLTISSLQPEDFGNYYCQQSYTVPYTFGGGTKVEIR VH: EVQLLESGGGLVQPGGSLRLSCAASGFTFSAYSMIWVRQAPGKGLEWVSYIRPSGGRTTYADSVKGRFTISRDNSKNTLYLQMNSLRAEDTAVYYCARGGLLLKFRELKSNYFDYWGQGTLVTVSSASTKGPSVFPLAPSSKS	No
X69-E01: single point mutation of M142-H08 (P1′); HV-CDR3 GGLLLWFRWLKSNYFDY (antibody, V domains shown) VL: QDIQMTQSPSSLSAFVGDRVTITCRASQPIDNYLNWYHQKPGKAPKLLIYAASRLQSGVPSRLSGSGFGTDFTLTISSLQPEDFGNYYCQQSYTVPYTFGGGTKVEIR VH: EVQLLESGGGLVQPGGSLRLSCAASGFTFSAYSMIWVRQAPGKGLEWVSYIRPSGGRTTYADSVKGRFTISRDNSKNTLYLQMNSLRAEDTAVYYCARGGLLLWFRWLKSNYFDYWGQGTLVTVSSASTKGPSVFPLAPSSKS	Yes
X66-F09: single point mutation of M142-H08 (P1); HV-CDR3 GGLLLWFWELKSNYFDY (antibody, V domains shown) VL: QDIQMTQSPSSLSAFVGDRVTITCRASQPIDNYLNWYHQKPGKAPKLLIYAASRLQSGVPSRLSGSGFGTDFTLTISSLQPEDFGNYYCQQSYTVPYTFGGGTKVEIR VH: EVQLLESGGGLVQPGGSLRLSCAASGFTFSAYSMIWVRQAPGKGLEWVSYIRPSGGRTTYADSVKGRFTISRDNSKNTLYLQMNSLRAEDTAVYYCARGGLLLWFWELKSNYFDYWGQGTLVTVSSASTKGPSVFPLAPSSKS	No

Exam item: Tell me the measured Inhibit as a Fab? of X68-H04: single point mutation of M142-H08 (P3); HV-CDR3 GGLLLVFRELKSNYFDY (antibody, V domains shown) VL: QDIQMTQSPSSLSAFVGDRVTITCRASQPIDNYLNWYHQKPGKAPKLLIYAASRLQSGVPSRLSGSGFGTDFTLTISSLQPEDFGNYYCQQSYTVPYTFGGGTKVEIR VH: EVQLLESGGGLVQPGGSLRLSCAASGFTFSAYSMIWVRQAPGKGLEWVSYIRPSGGRTTYADSVKGRFTISRDNSKNTLYLQMNSLRAEDTAVYYCARGGLLLVFRELKSNYFDYWGQGTLVTVSSASTKGPSVFPLAPSSKS , please.
Marked response: No

Exam item: Looking for the measured Inhibit as a Fab? of X69-C12: single point mutation of M142-H08 (P1′); HV-CDR3 GGLLLWFRVLKSNYFDY (antibody, V domains shown) VL: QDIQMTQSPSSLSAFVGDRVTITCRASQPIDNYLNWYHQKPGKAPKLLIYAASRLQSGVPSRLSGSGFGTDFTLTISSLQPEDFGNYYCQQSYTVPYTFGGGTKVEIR VH: EVQLLESGGGLVQPGGSLRLSCAASGFTFSAYSMIWVRQAPGKGLEWVSYIRPSGGRTTYADSVKGRFTISRDNSKNTLYLQMNSLRAEDTAVYYCARGGLLLWFRVLKSNYFDYWGQGTLVTVSSASTKGPSVFPLAPSSKS , can you help?
Marked response: Yes

Exam item: # Inhibit as a Fab? lookup, item X66-G08: single point mutation of M142-H08 (P1); HV-CDR3 GGLLLWFYELKSNYFDY (antibody, V domains shown) VL: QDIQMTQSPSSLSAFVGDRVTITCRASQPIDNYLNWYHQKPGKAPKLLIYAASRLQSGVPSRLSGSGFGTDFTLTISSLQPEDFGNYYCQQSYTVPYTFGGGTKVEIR VH: EVQLLESGGGLVQPGGSLRLSCAASGFTFSAYSMIWVRQAPGKGLEWVSYIRPSGGRTTYADSVKGRFTISRDNSKNTLYLQMNSLRAEDTAVYYCARGGLLLWFYELKSNYFDYWGQGTLVTVSSASTKGPSVFPLAPSSKS
Marked response: No
